Here, compounds appear alongside Ki reported for Tyrosine-protein kinase JAK2 (Homo sapiens, UniProt O60674) in the literature.

// solved cases for Ki follow
C[C@H](Nc1cc(-c2cnn3cccnc23)nc(OCCCN(C)C)n1)c1ccc(F)cc1F | < 10 nM
Nc1nc(-c2c[nH]c3ncncc23)ncc1F | > 5000 nM
N#Cc1cccc(F)c1-c1cc(-n2ccc(N3CC[C@@](O)(C(=O)N4CCCC4)C3)n2)c2c(n1)CNC2=O | 10 to 100 nM
CC(=O)CCC(=O)Nc1nc(-c2ncnc3[nH]ccc23)cs1 | < 100 nM
CC1CC1C(=O)Nc1nc(-c2ncnc3[nH]ccc23)cs1 (centres unmarked) | < 100 nM
C[C@H]1[C@H](O)CCN1c1ccn(-c2cc(-c3c(F)cccc3C#N)nc3c2C(=O)NC3)n1 | 0.1 to 10 nM
C[C@H](Nc1cc(-c2c(N)nn3cccnc23)ncn1)c1ccc(F)cc1Cl | < 10 nM

Consider the additional compound presented here.
Sample N#CCN(Cc1cccc(Cl)c1)C(=O)c1cc(-c2ncnc3[nH]ccc23)c[nH]1 , system: Tyrosine-protein kinase JAK2 (Homo sapiens, UniProt O60674). Its Ki is < 100 nM
